# targetOrSystem: Epidermal growth factor receptor (Homo sapiens, UniProt P00533, L858R/T790M)
# Sequence (P00533 25-1210 T790M/L858R limits assumed): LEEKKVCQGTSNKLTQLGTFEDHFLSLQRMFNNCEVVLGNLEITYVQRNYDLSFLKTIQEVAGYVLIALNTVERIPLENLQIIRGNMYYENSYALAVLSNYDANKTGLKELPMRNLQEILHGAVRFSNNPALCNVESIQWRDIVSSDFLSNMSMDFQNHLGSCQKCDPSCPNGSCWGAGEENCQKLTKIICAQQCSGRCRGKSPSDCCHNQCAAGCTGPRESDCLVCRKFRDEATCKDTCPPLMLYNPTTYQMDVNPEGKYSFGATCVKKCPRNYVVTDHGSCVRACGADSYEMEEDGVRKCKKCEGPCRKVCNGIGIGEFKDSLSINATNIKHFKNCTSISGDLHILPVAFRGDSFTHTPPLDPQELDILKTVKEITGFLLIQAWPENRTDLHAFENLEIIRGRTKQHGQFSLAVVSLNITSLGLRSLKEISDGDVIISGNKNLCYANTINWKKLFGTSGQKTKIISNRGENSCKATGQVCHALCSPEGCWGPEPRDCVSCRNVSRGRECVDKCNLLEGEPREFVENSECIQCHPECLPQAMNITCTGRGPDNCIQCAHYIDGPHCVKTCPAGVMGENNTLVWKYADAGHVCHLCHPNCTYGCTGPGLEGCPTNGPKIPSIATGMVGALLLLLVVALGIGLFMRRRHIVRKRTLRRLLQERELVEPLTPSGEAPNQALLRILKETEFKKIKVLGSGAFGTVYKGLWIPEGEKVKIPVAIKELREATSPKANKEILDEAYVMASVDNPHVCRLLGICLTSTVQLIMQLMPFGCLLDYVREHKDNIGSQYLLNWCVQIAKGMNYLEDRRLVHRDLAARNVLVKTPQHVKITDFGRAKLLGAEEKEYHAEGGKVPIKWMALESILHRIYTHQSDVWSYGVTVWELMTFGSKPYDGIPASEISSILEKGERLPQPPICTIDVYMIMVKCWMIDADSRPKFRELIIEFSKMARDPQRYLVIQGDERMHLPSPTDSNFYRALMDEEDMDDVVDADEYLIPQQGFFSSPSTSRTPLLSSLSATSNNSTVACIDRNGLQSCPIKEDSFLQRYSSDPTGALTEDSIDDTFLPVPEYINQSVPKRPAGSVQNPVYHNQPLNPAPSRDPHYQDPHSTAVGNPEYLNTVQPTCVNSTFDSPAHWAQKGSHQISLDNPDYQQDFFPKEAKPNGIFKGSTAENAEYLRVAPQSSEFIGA
# assay: Inhibition of human partial length EGFR L858R/T790M mutant (R669 to V1011 residues) expressed in mammalian expression system by competition binding assay based KinomeScan assay
reportedEndpoint: Kd (µM)
Quick reminder: number only, in µM, skip the unit.

**Query** Endpoint output: Kd of CCOc1cc2ncc(C#N)c(Nc3ccc(OCc4cccc(F)c4)c(Cl)c3)c2cc1NC(=O)CC1CCSS1 (stereo unspecified) . Value?
**Result** 10

###

# targetOrSystem: Epidermal growth factor receptor (Homo sapiens, UniProt P00533, A750P/L747-E749DEL)
# assay: Binding affinity to human partial length EGFR L747-E749del/A750P mutant expressed in bacterial expression system by KinomeScan assay
reportedEndpoint: Kd
A complete answer gives the number followed by the unit.

**Query** Identify the measured Kd of CCOc1cc2ncc(C#N)c(Nc3ccc(OCc4cccc(F)c4)c(Cl)c3)c2cc1NC(=O)CC1CCSS1 (stereo unspecified) for Epidermal growth factor receptor (Homo sapiens, UniProt P00533, A750P/L747-E749DEL).
**Result** 7.9 nM

###

# Species: Homo sapiens
# assay: Selectivity ratio, ratio of IC50 for probe binding to HER2 (unknown origin) to IC50 for probe binding to EGFR L858R mutant (unknown origin)
Ratio IC50 by entry:
// return just the number, without any unit appended

**Query** Requested field: Ratio IC50. Item: COc1cc2ncnc(Nc3ccc(Oc4ccc(C)nc4)c(C)c3)c2cc1NC(=O)C1CSSC1
**Result** 1.4

// next item, Ratio IC50 requested
**Query** Can you look up the measured Ratio IC50 of CCOc1cc2ncc(C#N)c(Nc3ccc(OCc4cccc(F)c4)c(Cl)c3)c2cc1NC(=O)CC1CCSS1 (stereo not given) for me?
**Result** 14.7

###

Let's go through some pIC50 measurements on Epidermal growth factor receptor (Homo sapiens, UniProt P00533, L858R) together.
Sequence (P00533 25-1210 L858R limits assumed): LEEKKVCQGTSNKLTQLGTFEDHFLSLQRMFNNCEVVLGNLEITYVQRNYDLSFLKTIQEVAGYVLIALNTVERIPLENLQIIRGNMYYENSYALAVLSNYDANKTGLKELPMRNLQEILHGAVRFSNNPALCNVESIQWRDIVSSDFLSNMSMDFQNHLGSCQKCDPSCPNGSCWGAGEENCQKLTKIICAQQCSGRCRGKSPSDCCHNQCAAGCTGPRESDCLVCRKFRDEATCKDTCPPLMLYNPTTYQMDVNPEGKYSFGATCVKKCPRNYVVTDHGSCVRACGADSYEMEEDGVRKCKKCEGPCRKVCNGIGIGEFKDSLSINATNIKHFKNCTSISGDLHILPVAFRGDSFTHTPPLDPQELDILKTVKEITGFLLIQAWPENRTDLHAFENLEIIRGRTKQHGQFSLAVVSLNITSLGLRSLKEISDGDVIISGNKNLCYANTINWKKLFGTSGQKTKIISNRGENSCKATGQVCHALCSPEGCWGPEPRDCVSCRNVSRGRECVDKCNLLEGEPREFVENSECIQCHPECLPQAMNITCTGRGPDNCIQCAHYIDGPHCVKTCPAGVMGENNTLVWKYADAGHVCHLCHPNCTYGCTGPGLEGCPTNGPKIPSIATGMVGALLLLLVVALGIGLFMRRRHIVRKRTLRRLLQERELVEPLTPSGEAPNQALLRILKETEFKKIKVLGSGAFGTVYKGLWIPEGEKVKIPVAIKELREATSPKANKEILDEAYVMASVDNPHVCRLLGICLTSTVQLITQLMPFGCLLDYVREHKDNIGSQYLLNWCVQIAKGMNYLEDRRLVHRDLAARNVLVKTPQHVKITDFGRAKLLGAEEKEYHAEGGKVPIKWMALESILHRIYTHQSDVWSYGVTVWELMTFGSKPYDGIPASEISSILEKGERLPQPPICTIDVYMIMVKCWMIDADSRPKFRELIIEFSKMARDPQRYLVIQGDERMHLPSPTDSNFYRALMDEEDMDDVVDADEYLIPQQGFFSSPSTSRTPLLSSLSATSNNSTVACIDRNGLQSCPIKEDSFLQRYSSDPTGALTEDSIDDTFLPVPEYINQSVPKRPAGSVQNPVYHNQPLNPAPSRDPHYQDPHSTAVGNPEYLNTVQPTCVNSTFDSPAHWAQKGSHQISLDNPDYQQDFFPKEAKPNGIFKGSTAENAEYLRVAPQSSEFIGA
Here pIC50 is given on a logarithmic scale as minus log10 of the concentration in mol/L.

**Query** Fill in the recorded pIC50 for this compound, with Epidermal growth factor receptor (Homo sapiens, UniProt P00533, L858R) as test system: CCOc1cc2ncc(C#N)c(Nc3ccc(F)c(Cl)c3)c2cc1NC(=O)CCCCC1CCSS1 (stereo not drawn)
**Result** 6.38

Further cases:
**Query** What reported pIC50 corresponds to N#Cc1cnc2ccc(NC(=O)C3CSSC3)cc2c1Nc1ccc(OCc2cccc(F)c2)c(Cl)c1 on Epidermal growth factor receptor (Homo sapiens, UniProt P00533, L858R)?
**Result** 6.70

**Query** API: value(readout= pIC50, system= Epidermal growth factor receptor (Homo sapiens, UniProt P00533, L858R), query= CCOc1cc2ncc(C#N)c(Nc3ccc(F)c(Cl)c3)c2cc1NC(=O)C1CSSC1 )
**Result** 6.66

**Query** Query the reported pIC50 for Epidermal growth factor receptor (Homo sapiens, UniProt P00533, L858R); item: COc1cc2ncnc(Nc3ccc(OCc4cccc(F)c4)c(Cl)c3)c2cc1NC(=O)CC1CCSS1 (stereo not drawn)
**Result** 8.24

**Query** Param readout = pIC50; param system = Epidermal growth factor receptor (Homo sapiens, UniProt P00533, L858R); param query = N#Cc1cnc2cc(OC[C@@H](O)CO)c(NC(=O)C3CSSC3)cc2c1Nc1ccc(OCc2cccc(F)c2)c(Cl)c1 ; response: value
**Result** 8.05

**Query** API: value(readout=pIC50, system=Epidermal growth factor receptor (Homo sapiens, UniProt P00533, L858R)) for record CCOc1cc2ncc(C#N)c(Nc3ccc(OCc4cccc(F)c4)c(Cl)c3)c2cc1NC(=O)C1CSSC1
**Result** 7.74

**Query** Request body: readout pIC50, system Epidermal growth factor receptor (Homo sapiens, UniProt P00533, L858R), query CCOc1cc2ncc(C#N)c(Nc3ccc(OCc4cccc(F)c4)c(Cl)c3)c2cc1NC(=O)C(CSC(C)=O)CSC(C)=O . Return the value.
**Result** 7.57

**Query** Give Epidermal growth factor receptor (Homo sapiens, UniProt P00533, L858R) pIC50 for N#Cc1cnc2cc(OC[C@H](O)CO)c(NC(=O)C3CSSC3)cc2c1Nc1ccc(OCc2cccc(F)c2)c(Cl)c1
**Result** 7.70
